Assign Mac viability (AUC) to each entry below.
# tested system: T1, human TREM2 expressed on cells (human, UniProt Q9NZC2 19-230)
# T1 sequence: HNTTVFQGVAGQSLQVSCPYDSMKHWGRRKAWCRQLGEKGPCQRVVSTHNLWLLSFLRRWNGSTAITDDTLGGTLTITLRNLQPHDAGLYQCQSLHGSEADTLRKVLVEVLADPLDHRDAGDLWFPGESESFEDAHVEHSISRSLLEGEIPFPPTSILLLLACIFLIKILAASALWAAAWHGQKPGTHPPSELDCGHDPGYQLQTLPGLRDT
# assay name: cell-based or functional assay
Just the number in AUC, nothing appended.

(Q) Can you share its Mac viability (AUC)? I mean this binder: AL2p-45 (antibody, V domains shown, Fab and IgG formats under one id) VH: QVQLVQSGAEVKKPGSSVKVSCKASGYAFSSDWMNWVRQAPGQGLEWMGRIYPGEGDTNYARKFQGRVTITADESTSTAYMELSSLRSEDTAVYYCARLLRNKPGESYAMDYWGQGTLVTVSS VL: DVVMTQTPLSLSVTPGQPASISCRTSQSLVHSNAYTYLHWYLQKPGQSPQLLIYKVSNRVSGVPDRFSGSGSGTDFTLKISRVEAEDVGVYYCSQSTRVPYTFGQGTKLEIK
(A) 3680

(Q) What value of Mac viability (AUC) has been recorded for this entry: AL2p-41 (antibody, IgG1, V domains shown, Fab and IgG formats under one id) VH: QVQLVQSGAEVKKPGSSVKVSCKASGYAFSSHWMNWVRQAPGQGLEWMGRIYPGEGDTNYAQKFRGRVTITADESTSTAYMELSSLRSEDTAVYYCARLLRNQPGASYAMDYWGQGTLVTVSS VL: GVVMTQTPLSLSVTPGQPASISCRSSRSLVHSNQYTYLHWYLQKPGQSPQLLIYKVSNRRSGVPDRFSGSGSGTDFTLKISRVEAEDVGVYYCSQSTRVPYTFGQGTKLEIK
(A) 80700

(Q) Please look up its Mac viability (AUC): AL2p-49 (antibody, V domains shown, Fab and IgG formats under one id) VH: EVQLVQSGAEVKKPGSSVKVSCKASGYAFSSDWMNWVRQAPGQGLEWMGRIYPGEGDTNYARKFHGRVTITADESTSTAYMELSSLRSEDTAVYYCARLLRNKPGESYAMDYWGQGTLVTVSS VL: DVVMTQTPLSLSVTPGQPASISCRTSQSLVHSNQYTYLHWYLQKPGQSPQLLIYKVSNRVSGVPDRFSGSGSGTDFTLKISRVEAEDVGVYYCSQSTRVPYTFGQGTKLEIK
(A) 15100

Each recorded value in this set is attributed to patent US20200317776A1.
